Just for reference, ChEMBL document CHEMBL4296182 is where these values come from.

System: Acinetobacter baumannii
Assay: Antibacterial activity against Acinetobacter baumannii ATCC 19606 (CO-ADD:GN_034); MIC in CAMBH media using NBS plates, by Resazurin F(560/590)
Type: functional
Conditions: Concentration 20 uM, ASSAY_TEST Inhibition of Bacterial Growth, detection method Resazurin, Fluorescence (ex560/em590), MEDIA CAMHB, plate type 384well, CORNING #3640, time 18 hr
Measured Inhibition accompanies every entry in the list below.
Express it in %; write the number only.

Example entries begin here.
CC1(C)c2ccccc2-c2nc3ccccc3cc2C1O (stereo unspecified); 7.67
C=CCNC(=S)N1CCN(c2ccccc2Cl)CC1; 9.34
CCOC(=O)c1nn(-c2ccccc2)cc1O; -10.69
CNc1ccc(/N=N/c2cc[n+]([O-])cc2C)cc1C; -11.34
COc1cc(S(N)(=O)=O)c(OC)cc1N; -10.8
Cc1ccc(-c2nc(-c3nccc4ccccc34)oc2-c2ccccc2)cc1; 5.86
NC(=O)c1ccc(Cl)c2ccccc12; -9.07
CCN(CC)CCN1c2ccccc2Sc2ccc3ccccc3c21; -0.08

Request: Form field: reported Inhibition of c1ccc2sc(SCSc3nc4ccccc4s3)nc2c1
Result: -17.15

---

Test system: Candida albicans
Details: 20 µM
Description: Antifungal activity against Candida albicans ATCC 90028 (CO-ADD:FG_001); MIC in YNB media using NBS plates, by OD630
Potency and affinity values are given separately.
Measured Inhibition accompanies every entry in the list below.
Express it in %; write the number only.

O=[N+]([O-])c1ccc2[nH]c3nc4ccccc4nc3c2c1; 5.48
c1ccc(-c2nnc3nc(N4CCCCC4)nc(N4CCCCC4)n23)cc1; 1.09

Request: Form field: reported Inhibition of OCC1(CO)CC2(C1)CC(CO)(CO)C2
Result: -2

---

System: Cryptococcus neoformans
Settings: Concentration 20 uM; ASSAY_TEST Inhibition of Fungal Growth; detection method Resazurin; Absorption (OD600-OD570); plate type 384well; NBS; CORNING #3640
Description: Antifungal activity against Cryptococcus neoformans H99 ATCC 208821 (CO-ADD:FG_002); MIC in YNB media using NBS plates, by Resazurin OD(600-570)
Potency and affinity values are given separately.
assay_metric: Inhibition (%)
Express it in %; write the number only.

CCC/C(C)=C/c1ccc(CC)cn1; 27.41
Cc1c([N+](=O)[O-])oc2c1C(=O)NCCC2; -11.37
CCOC(=O)C(C#N)C(=N)C1C(=O)OC2CCCCC21 (stereo not drawn); -12.86
CC(=O)[C@H]1CC[C@H]2[C@@H]3CCC4=CC(=O)C=C[C@]4(C)[C@H]3C(=O)C[C@]12C; -6.32
Cc1ccc(/N=N/c2ccc(N)cc2C)c(S(N)(=O)=O)c1; -0.55
CC(=O)Oc1ccc(C(c2ccc(OC(C)=O)cc2)c2ccccn2)cc1 [BISACODYL]; -1.75
Cn1c(C(=O)c2ccncc2)cc2ccccc21; -4.68
O=C1c2ccccc2C(=O)c2c(Nc3ccc(CCO)cc3)ccc(O)c21; -4.75
Cn1ncc2c(Nc3ccc([N+](=O)[O-])cc3)nc(Cl)nc21; -3.09
CC(=O)OC1CCC2(C)C(=CCC3C2CCC2(C)C3CC3OC4(CCC(C)CN4)C(C)C32)C1 (stereo not drawn); 14.75

# input for lookup
Request: Missing value: Inhibition, Cryptococcus neoformans, entry CCCCN1C(=O)CC2CCOC21C (stereo not drawn) . Fill in?
Result: -12.41

---

Test system: Escherichia coli
Test: Antibacterial activity against Escherichia coli ATCC 25922 (CO-ADD:GN_001); MIC in CAMBH media using NBS plates, by Resazurin F(560/590)
Type: functional
Settings: Concentration 20 uM, ASSAY_TEST Inhibition of Bacterial Growth, detection method Resazurin, Fluorescence (ex560/em590), MEDIA CAMHB, plate type 384well, CORNING #3640, time 18 hr
assay_metric: Inhibition (%)
Express it in %; write the number only.

Example entries begin here.
CCOC(=O)/C=C/c1ccc(C(=O)OCC)[nH]1; 20.38
Cn1nc(NC(=O)C(F)(F)F)c2ncc(-c3ccc(Cl)cc3)nc21; 1.31

Request: Missing value: Inhibition, Escherichia coli, entry Cc1cccc(C)c1NC(=O)NCc1ccco1 . Fill in?
Result: 6.33

Request: Missing value: Inhibition, Escherichia coli, entry CCOC(=O)c1cc(-c2ccccc2)nc2ccc(C)cc12 [NEOCINCHOPHEN] . Fill in?
Result: -14.74

Request: Missing value: Inhibition, Escherichia coli, entry CCOC(=O)c1cnc(SCC)nc1O . Fill in?
Result: 0.66

Request: Missing value: Inhibition, Escherichia coli, entry COc1ccc2c(c1)c1ccc3c(c1n2C)C(=O)C=CC3=O . Fill in?
Result: -18.56

Request: Missing value: Inhibition, Escherichia coli, entry COc1ccc(-c2cc3ccccc3[nH]2)cc1 . Fill in?
Result: 12.2

Request: Missing value: Inhibition, Escherichia coli, entry NS(=O)(=O)c1cc2c(cc1Cl)NC(CC1CCCC1)NS2(=O)=O (configuration not stated) [CYCLOPENTHIAZIDE] . Fill in?
Result: -12.38

Request: Missing value: Inhibition, Escherichia coli, entry Nc1o[nH]c(=O)c1C1CCCCC1 . Fill in?
Result: 16.54

Request: Missing value: Inhibition, Escherichia coli, entry CC(O)c1nc2c(c(=O)n(C)c(=O)n2C)n1C (configuration not stated) . Fill in?
Result: 6.75

---

Measured Inhibition accompanies every entry in the list below.
Tested on: Cryptococcus neoformans
Conditions: Concentration 20 uM; ASSAY_TEST Inhibition of Fungal Growth; detection method Resazurin; Absorption (OD600-OD570); plate type 384well; NBS; CORNING #3640
Potency and affinity values are given separately.
Express it in %; write the number only.

O=C(Nc1ccc(Cl)c([N+](=O)[O-])c1)Nc1nc2ccccc2s1; 11.69

Request: Form field: reported Inhibition of C=CCNC(=O)C1COc2ccccc2O1 (stereo not given)
Result: -7.01

Request: Form field: reported Inhibition of N#CC1=C2CCCCC2(O)NC1=O (stereo not given)
Result: -5.83

Request: Form field: reported Inhibition of COc1cc(NC(C)=O)c2ncccc2c1Br
Result: -16.73

Request: Form field: reported Inhibition of Nc1nc(N)nc(C2C=CCCC2)n1 (stereo not given)
Result: -8.05

Request: Form field: reported Inhibition of CCOC(=O)c1cc(-c2cccnc2)nc2c(Cl)cc(Cl)cc12
Result: -6.65

Request: Form field: reported Inhibition of CC1CC=C(O)C12OCC(C)(C)CO2 (stereo not given)
Result: -5.4

Request: Form field: reported Inhibition of CCOC(=O)c1ccc2c(c1)NCc1cccc(OC)c1O2
Result: -17.21

Request: Form field: reported Inhibition of Nc1cc(N)nc(CS)n1
Result: -6.05

Request: Form field: reported Inhibition of CS/C(=C\c1ccc(C(=O)c2ccc(C)cc2)n1C)[S+](C)[O-] (stereo not given)
Result: 1.32

Request: Form field: reported Inhibition of C=CCNC(S)=NCC
Result: -1.87

Request: Form field: reported Inhibition of Cc1ccc(Cl)cc1NC(=O)N(C)CCO
Result: -5.5

Request: Form field: reported Inhibition of O=C1NCCc2c1[nH]c1ccccc21
Result: -7.2

Request: Form field: reported Inhibition of CC(C)(NC(=O)c1cc(Cl)c2ccccc2c1O)C(=O)O
Result: 0.69

Request: Form field: reported Inhibition of COc1ccc2nc3cc(Cl)ccc3c(Nc3cc(C(C)C)c(O)cc3C)c2c1
Result: -12.42

Request: Form field: reported Inhibition of Clc1nnc2c3ccccc3ccn12
Result: -9.43

Request: Form field: reported Inhibition of CC1=CC(=O)Nc2cncnc2N1
Result: 0.91

---

Test system: Acinetobacter baumannii
Assay: Antibacterial activity against Acinetobacter baumannii ATCC 19606 (CO-ADD:GN_034); MIC in CAMBH media using NBS plates, by Resazurin F(560/590)
Type: functional
Conditions: Concentration 20 uM, ASSAY_TEST Inhibition of Bacterial Growth, detection method Resazurin, Fluorescence (ex560/em590), MEDIA CAMHB, plate type 384well, CORNING #3640, time 18 hr
assay_metric: Inhibition (%)
Express it in %; write the number only.

Request: Form field: reported Inhibition of CCOC(=O)C(=Cc1ccc(Br)cc1)C(=O)OCC
Result: 8.54

Request: Form field: reported Inhibition of NC1=NC(c2ccc(Cl)cc2)N(c2ccc(S(N)(=O)=O)cc2)C(N)=N1 (configuration not stated)
Result: 15.66

Request: Form field: reported Inhibition of CCCCC(=O)N1CCCC(C)C1 (configuration not stated)
Result: -11.97

Request: Form field: reported Inhibition of CC(C)(C)c1ccc(OCC(=O)O)cc1
Result: -1

Request: Form field: reported Inhibition of CCCCNC(=O)Nc1ccccc1CC
Result: 10.42

Request: Form field: reported Inhibition of C#CCSc1nnnn1-c1ccc(Br)c(C)c1
Result: 5.77

Request: Form field: reported Inhibition of Cc1ccc(/N=N/c2c(O)c3ccccc3[nH]c2=O)c(S(=O)(=O)N(C)C)c1
Result: 7.24
